Data origin, for the record: paper PMC9250534

Target: MDM2 (Homo sapiens)
Assay: MDM2 binding screen of Libraries 3 and 4: displacement of fluorescent probe F-M8 at 750 nM macrocycle
Details: Panel b, Library 3: 63 scaffolds combinatorially acylated with 15 carboxylic acids at 30 picomole scale; displacement of fluorescent peptide probe; macrocycle 750 nM
Protocol: The cyclic peptide scaffolds required for Libraries 3 and 4 were synthesized as described for those used in Library 2. Due to the presence of many N-methylated amino acids which are more difficult to couple, 200 mM HOAt was applied together with HATU. The scaffolds were diluted to 2 mM in DMSO, and 15 nL were transferred using acoustic dispensing, followed by 15 nL DMSO containing carboxylic acids (40 mM, 20 equiv.), HBTU (40 mM) and DABCO (40 mM). […]
observation.type: fraction of fluorescent probe displaced

These solved cases illustrate the format of a correct answer.
{"compound": "CN1C(=O)CN(CCNC(=O)c2ccc(Cl)s2)C(=O)[C@H]2CCCN(C2)C(=O)CCSSCCNC(=O)[C@@H]1Cc1c[nH]c2ccccc12", "fraction of fluorescent probe displaced": 0.00133}
{"compound": "CN1C(=O)CN(CCNC(=O)c2ccc(Cl)cc2)C(=O)C2CN(CCO2)C(=O)CCSSCCNC(=O)C1Cc1c[nH]c2ccccc12 (centres unmarked)", "fraction of fluorescent probe displaced": 0.021}
{"compound": "CN1C(=O)[C@@H](CNC(=O)c2ccc(Cl)s2)NC(=O)C2(CC2)CNC(=O)CCSSCCNC(=O)[C@@H]1Cc1c[nH]c2ccccc12", "fraction of fluorescent probe displaced": 0.008}

a. O=C1CN(CCNC(=O)c2cccc(Oc3ccccc3)c2)C(=O)[C@H]2CCCN(C2)C(=O)CCSSCCNC(=O)[C@H](Cc2c[nH]c3cc(Cl)ccc23)N1
b. O=C1CCSSCCNC(=O)[C@H](Cc2ccc3ccccc3c2)NC(=O)[C@H](CNC(=O)c2cccc(Oc3ccccc3)c2)NC(=O)C2(CC2)CN1
Given the listed records, identify the one among a and b with higher fraction of fluorescent probe displaced. Returns: label corresponding to the selected item.
b

###

molecular target: MDM2 (Homo sapiens, UniProt Q00987); test: MDM2 binding screen: displacement of fluorescent p53 peptide probe FP53 (fluorescence polarization); conditions: Acid 91; initial screen; crude macrocycle reactions
Sequence (Q00987 whole entry): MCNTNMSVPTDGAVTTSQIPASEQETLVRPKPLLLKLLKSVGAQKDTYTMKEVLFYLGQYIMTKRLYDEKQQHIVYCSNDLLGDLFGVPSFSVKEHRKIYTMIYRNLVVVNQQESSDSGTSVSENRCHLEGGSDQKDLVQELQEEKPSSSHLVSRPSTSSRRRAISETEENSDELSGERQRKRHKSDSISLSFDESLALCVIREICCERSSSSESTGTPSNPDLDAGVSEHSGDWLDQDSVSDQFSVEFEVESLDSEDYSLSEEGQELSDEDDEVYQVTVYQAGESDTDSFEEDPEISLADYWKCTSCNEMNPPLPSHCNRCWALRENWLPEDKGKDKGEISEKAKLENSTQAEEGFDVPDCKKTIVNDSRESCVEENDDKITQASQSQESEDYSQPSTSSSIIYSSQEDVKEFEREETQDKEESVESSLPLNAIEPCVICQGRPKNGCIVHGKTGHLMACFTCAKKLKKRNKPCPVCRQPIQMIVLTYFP
Numbered stars: 1 amine (or outer) side, 2 acyl side, 3 side chain; on linkers, the order of the positions; unused ones are H or OH. Bridge positions count the residues as written; N and C are the ends. Square brackets hold non-standard residues; d marks the D form. Peptide text beside a SMILES is read from it. * marks the point of attachment. Cysteamide = C(CS[*:3])N[*:1]; X1 = O=C(/C=C/c1ccccc1)*; Dap = NC[C@H](N)C(=O)O; Mpa = O=C(O)CCS
observation.type: fraction fluorescent probe displaced, Screen

{"compound": "O=C(C=Cc1ccccc1)NC1CC2C(=O)NC(Cc3c[nH]c4ccccc34)C(=O)N3CCCC(C3)C(=O)NCCSSCCC(=O)N2C1 (stereo not drawn) [X D5 W B4 Acid 91]", "value.observed": 0.0563}

A. O=C1CCSSCCNC(=O)C2CN(C(=O)C=Cc3ccccc3)CCN2C(=O)C(Cc2c[nH]c3ccccc23)NC(=O)c2cccc(c2)CN1 (stereo not drawn) [X B5 W D7 Acid 91]
B. O=C(/C=C/c1ccccc1)NC[C@@H]1NC(=O)[C@@H]2CCCN2C(=O)CCSSCCNC(=O)[C@H](Cc2ccccc2)NC1=O [X B1 D3 F Acid 91] ([Mpa]P[Dap](X1)F-Cysteamide; disulfide 1-C)
For this pair, A and B , which shows a numerically higher fraction fluorescent probe displaced, Screen? I would appreciate it if you answered with the label of your choice.
B
(B: 0.08, A: 0.03)

###

target: MDM2 (Homo sapiens, UniProt Q00987); experiment: MDM2 binding screen of Libraries 3 and 4: displacement of fluorescent probe F-M8 at 750 nM macrocycle; settings: Panel b, Library 3: 63 scaffolds combinatorially acylated with 15 carboxylic acids at 30 picomole scale; displacement of fluorescent peptide probe; macrocycle 750 nM
observation.type: fraction of fluorescent probe displaced

{"compound": "Cn1cc(C[C@@H]2NC(=O)CN(CCNC(=O)CCS(=O)(=O)c3ccccc3)C(=O)[C@@H]3CN(CCO3)C(=O)CCSSCCNC2=O)c2ccccc21", "fraction of fluorescent probe displaced": -0.012}

I. O=C(NC[C@H]1NC(=O)[C@H]2CCCN(C2)C(=O)CCSSCCNC(=O)[C@@H](Cc2c[nH]c3ccccc23)NC1=O)c1ccc(Cl)s1
II. CC(Oc1cccc(Cl)c1)C(=O)NCC1NC(=O)C2CCCN(C2)C(=O)CCSSCCNC(=O)C(Cc2ccc3ccccc3c2)NC1=O (mixture of isomers)
Of I and II , whose reported fraction of fluorescent probe displaced is the larger number? Write down the label of the entry you select.
I

###

target: thrombin (Homo sapiens); construct: consists of two polypeptide chains of 36 (light chain) and 259 amino acid; experiment: Thrombin inhibition screen of crude macrocycle reactions (residual thrombin activity, fluorogenic substrate Z-Gly-Gly-Arg-AMC); type: biochemical; details: 10 µM macrocycle concentration; crude reactions, Library 1a-l; scaffold AA1-AA2-AA3 combined with 1-16 or '-'
Numbered stars: 1 amine (or outer) side, 2 acyl side, 3 side chain; on linkers, the order of the positions; unused ones are H or OH. Bridge positions count the residues as written; N and C are the ends. Square brackets hold non-standard residues; d marks the D form. Peptide text beside a SMILES is read from it. * marks the point of attachment. Nicotinoyl(6-OMe) = COc1ccc(C(=O)*)cn1; 2Thenoyl(5-Cl) = O=C(c1ccc(Cl)s1)*; Cysteamide = C(CS[*:3])N[*:1]; Mpa = O=C(O)CCS
observation.type: percent residual thrombin activity (%)

{"molecule": "O=C1CCSSCCNC(=O)[C@H](Cc2ccc(O)cc2)NC(=O)[C@H](CCCNC(=O)c2ccco2)NC(=O)CCN1 [B2-D2-Y/16]", "unit.abbrev": "%", "value.observed": 116.586}
{"molecule": "CC(C)[C@@H]1NC(=O)CCSSCCNC(=O)[C@@H]2CCCN2C(=O)[C@H](CCCCNC(=O)c2ccc(Cl)s2)NC1=O [V-D1-B1/14] ([Mpa]VK(2Thenoyl(5-Cl))P-Cysteamide; disulfide 1-C)", "unit.abbrev": "%", "value.observed": 105.594}
{"molecule": "CC[C@H](C)[C@@H]1NC(=O)CCNC(=O)[C@H](CCCNC(=O)c2ccco2)NC(=O)CCSSCCNC1=O [D2-B2-I/16]", "unit.abbrev": "%", "value.observed": 111.823}
{"molecule": "COc1ccc(C(=O)NCCCC[C@@H]2NC(=O)[C@@H]3CCCN3C(=O)CCSSCCNC(=O)[C@@H](Cc3ccc(O)cc3)NC2=O)cn1 [B1-D1-y/10] ([Mpa]PK(Nicotinoyl(6-OMe))[dY]-Cysteamide; disulfide 1-C)", "unit.abbrev": "%", "value.observed": 109.958}
{"molecule": "C[C@H]1NC(=O)CCSSCCNC(=O)[C@H](CCCCNC(=O)c2ccco2)NC(=O)CCNC1=O [a-B2-D1/16]", "unit.abbrev": "%", "value.observed": 107.587}
{"molecule": "O=C1CCNC(=O)[C@@H](CO)NC(=O)CCSSCCNC(=O)[C@H](CCCCNC(=O)c2c[nH]c(=O)[nH]c2=O)N1 [s-B2-D1/11]", "unit.abbrev": "%", "value.observed": 113.521}

###

target: thrombin (Homo sapiens); construct: consists of two polypeptide chains of 36 (light chain) and 259 amino acid; assay: Determination of Kis of purified thrombin inhibitors (IC50, Cheng-Prusoff); format: biochemical; conditions: thrombin; replicate 3; read-out: Ki (nM) Replicate 3
observation.type: Ki (nM)
Kindly provide the numeric value in nM only, without the unit symbol.

Give its Ki value. Item: CC(C)C1NC(=O)CCSCSCCNC(=O)C(CNC(=O)c2ccc(Cl)s2)NC(=O)c2cccc(c2)CNC1=O (stereo not shown)
76

###

molecular target: thrombin (Homo sapiens, UniProt P00734); construct: consists of two polypeptide chains of 36 (light chain) and 259 amino acid; assay: Thrombin inhibition screen of crude macrocycle reactions (residual thrombin activity, fluorogenic substrate Z-Gly-Gly-Arg-AMC); assay type: biochemical; conditions: 10 µM macrocycle concentration; crude reactions, Library 1a-l; scaffold AA1-AA2-AA3 combined with 1-16 or '-'
Numbered stars: 1 amine (or outer) side, 2 acyl side, 3 side chain; on linkers, the order of the positions; unused ones are H or OH. Bridge positions count the residues as written; N and C are the ends. Square brackets hold non-standard residues; d marks the D form. Peptide text beside a SMILES is read from it. * marks the point of attachment. Nicotinoyl(6-OMe) = COc1ccc(C(=O)*)cn1; Cysteamide = C(CS[*:3])N[*:1]; X3 = O=C(Cc1c[nH]c2ccccc12)*; Mpa = O=C(O)CCS
observation.type: percent residual thrombin activity (%)

{"molecule": "O=C1CCNC(=O)[C@@H](CO)NC(=O)CCSSCCNC(=O)[C@H](CCCCNC(=O)c2c[nH]c(=O)cn2)N1 [s-B2-D1/9]", "percent residual thrombin activity / %": 109.681}
{"molecule": "O=C1CCSSCCNC(=O)[C@H](Cc2ccc(O)cc2)NC(=O)c2cccc(c2)CNC(=O)[C@H](CCCNC(=O)c2ccc(Cl)s2)N1 [D2-B5-Y/14]", "percent residual thrombin activity / %": 78.2447}
{"molecule": "O=C1CCSSCCNC(=O)c2ccc(cc2)CNC(=O)[C@H](Cc2c[nH]c3ccccc23)NC(=O)[C@H](CCCNC(=O)c2c[nH]c(=O)[nH]c2=O)N1 [D2-W-B3/11]", "percent residual thrombin activity / %": 121.031}
{"molecule": "O=C1CCSSCCNC(=O)[C@@H](Cc2ccc(O)cc2)NC(=O)CCNC(=O)[C@H](CCCCNC(=O)c2ccco2)N1 [D1-B2-y/16]", "percent residual thrombin activity / %": 114.281}
{"molecule": "O=C(Cc1c[nH]c2ccccc12)NCCCC[C@@H]1NC(=O)[C@@H](Cc2ccc(O)cc2)NC(=O)CCSSCCNC(=O)[C@@H]2CCCN2C1=O [y-D1-B1/12] ([Mpa][dY]K(X3)P-Cysteamide; disulfide 1-C)", "percent residual thrombin activity / %": 104.378}
{"molecule": "CC[C@H](C)[C@@H]1NC(=O)CCSSCCNC(=O)[C@H]2CCCN(C2)C(=O)[C@H](CCCCN)NC1=O [I-D1-B4/-]", "percent residual thrombin activity / %": 114.483}
{"molecule": "CC(C)CC(=O)NCCC[C@@H]1NC(=O)CCSSCCNC(=O)[C@H](C(C)C)NC(=O)[C@H]2CCCN(C2)C1=O [D2-B4-V/8]", "percent residual thrombin activity / %": 110.86}
{"molecule": "O=C(COc1ccccc1)NCCCC[C@@H]1NC(=O)CCSSCCNC(=O)c2ccc(cc2)CNC(=O)[C@H](CO)NC1=O [D1-S-B3/13]", "percent residual thrombin activity / %": 115.568}
{"molecule": "C[C@H]1NC(=O)CCSSCCNC(=O)[C@@H]2CCCN2C(=O)[C@H](CCCCNC(=O)Cc2c[nH]c3ccccc23)NC1=O [a-D1-B1/12] ([Mpa][dA]K(X3)P-Cysteamide; disulfide 1-C)", "percent residual thrombin activity / %": 113.455}
{"molecule": "COc1ccc(C(=O)NCCCC[C@@H]2NC(=O)[C@H](C(C)C)NC(=O)CCSSCCNC(=O)[C@@H]3CCCN3C2=O)cn1 [v-D1-B1/10] ([Mpa]VK(Nicotinoyl(6-OMe))P-Cysteamide; disulfide 1-C)", "percent residual thrombin activity / %": 104.488}
{"molecule": "COc1ccc(C(=O)NCCCC[C@@H]2NC(=O)CCSSCCNC(=O)[C@@H](Cc3ccc(O)cc3)NC(=O)CCNC2=O)cn1 [D1-B2-y/10]", "percent residual thrombin activity / %": 108.421}
{"molecule": "O=C1CCSSCCNC(=O)c2ccc(cc2)CNC(=O)[C@H](Cc2c[nH]c3ccccc23)NC(=O)[C@H](CCCNC(=O)c2c[nH]c(=O)cn2)N1 [D2-W-B3/9]", "percent residual thrombin activity / %": 111.429}
